Tested on: Pseudomonas aeruginosa
Experiment: Antimicrobial activity against Pseudomonas aeruginosa PAO1 by micro broth dilution or agar based method
Assay type: functional
METRIC NAME: MIC

Answer with the recorded MIC of O=C(O)COc1ccc2ncc(F)c(CCC34CCC(NCc5ccc6c(n5)NC(=O)CO6)(CC3)CO4)c2n1 only. 16 µg/mL

Answer with the recorded MIC of O=C1COc2ccc(CNC34CCC(CCc5c(F)cnc6ccc(OCC7(CO)CC7)nc56)(CC3)OC4)nc2N1 only. 32 µg/mL

Answer with the recorded MIC of O=C1COc2ccc(CNC34CCC(CCc5c(F)cnc6ccc(OCC(CO)CO)nc56)(CC3)OC4)nc2N1 only. 32 µg/mL

Answer with the recorded MIC of CC(C)Oc1ccc2ncc(F)c(CCC34CCC(NCc5ccc6c(n5)NC(=O)CO6)(CC3)CO4)c2n1 only. 32 µg/mL

Answer with the recorded MIC of O=C1COc2ccc(CNC34CCC(CCc5c(F)cnc6ccc(OCCOCCO)nc56)(CC3)OC4)nc2N1 only. 32 µg/mL

Answer with the recorded MIC of NCCOc1ccc2ncc(F)c(CCC34CCC(NCc5ccc6c(n5)NC(=O)CO6)(CC3)CO4)c2n1 only. 4 µg/mL

Answer with the recorded MIC of O=C(O)CCCCOc1ccc2ncc(F)c(CCC34CCC(NCc5ccc6c(n5)NC(=O)CO6)(CC3)CO4)c2n1 only. 16 µg/mL

Answer with the recorded MIC of N[C@@H]1CO[C@@H]1COc1ccc2ncc(F)c(CCC34CCC(NCc5ccc6c(n5)NC(=O)CO6)(CC3)CO4)c2n1 only. 32 µg/mL
